SYSTEM UNDER TEST: Inosine-5'-monophosphate dehydrogenase 1 (Homo sapiens)
Sequence (P20839 whole entry): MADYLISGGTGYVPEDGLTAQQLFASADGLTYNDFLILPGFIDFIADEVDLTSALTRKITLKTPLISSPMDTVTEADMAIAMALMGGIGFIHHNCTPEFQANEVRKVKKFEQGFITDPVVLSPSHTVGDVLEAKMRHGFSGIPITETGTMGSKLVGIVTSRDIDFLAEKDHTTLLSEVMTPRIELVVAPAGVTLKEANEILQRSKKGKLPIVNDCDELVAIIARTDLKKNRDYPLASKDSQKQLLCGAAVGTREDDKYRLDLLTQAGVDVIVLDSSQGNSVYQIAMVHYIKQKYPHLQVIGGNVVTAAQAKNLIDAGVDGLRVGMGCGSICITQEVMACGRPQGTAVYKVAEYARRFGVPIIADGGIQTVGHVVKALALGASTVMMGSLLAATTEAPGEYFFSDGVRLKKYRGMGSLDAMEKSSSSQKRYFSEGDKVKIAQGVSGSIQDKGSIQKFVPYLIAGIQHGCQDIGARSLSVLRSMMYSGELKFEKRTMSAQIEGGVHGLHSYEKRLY
ASSAY COMMENT: Inhibition of recombinant human His-tagged IMPDH1 expressed in Escherichia coli BL21 (DE3) using IMP as substrate in presence of NAD
IC50 strictly less than 8 µM = class 1. Otherwise class 0.

CHEM SMILES: COc1cccc(-c2nnc(SC3=CS(=O)(=O)c4ccccc43)o2)c1
SYSTEM UNDER TEST: Inosine-5'-monophosphate dehydrogenase 1 (Homo sapiens)
DISCRETE LABEL: class 1

CHEM SMILES: COc1ccc(-c2nnc(SC3=CS(=O)(=O)c4ccccc43)o2)cc1
SYSTEM UNDER TEST: Inosine-5'-monophosphate dehydrogenase 1 (Homo sapiens)
DISCRETE LABEL: class 0

CHEM SMILES: O=S1(=O)C=C(Sc2nnc(C3CCCCC3)o2)c2ccccc21
SYSTEM UNDER TEST: Inosine-5'-monophosphate dehydrogenase 1 (Homo sapiens)
DISCRETE LABEL: class 1

CHEM SMILES: COC(=O)c1ccc(-c2nnc(SC3=CS(=O)(=O)c4ccccc43)o2)cc1
SYSTEM UNDER TEST: Inosine-5'-monophosphate dehydrogenase 1 (Homo sapiens)
DISCRETE LABEL: class 0

CHEM SMILES: COc1ccccc1-c1nnc(SC2=CS(=O)(=O)c3ccccc32)o1
SYSTEM UNDER TEST: Inosine-5'-monophosphate dehydrogenase 1 (Homo sapiens)
DISCRETE LABEL: class 0

CHEM SMILES: O=S1(=O)C=C(Sc2nnc(-c3cccc(Cl)c3)o2)c2ccccc21
SYSTEM UNDER TEST: Inosine-5'-monophosphate dehydrogenase 1 (Homo sapiens)
DISCRETE LABEL: class 0

Confirm or reject: IC50 of Nc1ccc(-c2nnc(SC3=CS(=O)(=O)c4ccccc43)o2)cc1 lies strictly below 8 µM
class 0

Confirm or reject: IC50 of CC(=O)Nc1ccc(-c2nnc(SC3=CS(=O)(=O)c4ccccc43)o2)cc1 lies strictly below 8 µM
class 0

Confirm or reject: IC50 of COc1c(C)c2c(c(O)c1C/C=C(\C)CCC(=O)O)C(=O)OC2 lies strictly below 8 µM
class 1

Confirm or reject: IC50 of O=S1(=O)C=C(Sc2nnc(-c3ccccn3)o2)c2ccccc21 lies strictly below 8 µM
class 0

Confirm or reject: IC50 of Cc1ccc(-c2nnc(SC3=CS(=O)(=O)c4ccccc43)o2)cc1 lies strictly below 8 µM
class 0

====

Tested on: Cryptococcus neoformans
MIC strictly less than 9 µM = 1. Otherwise -1.

COMPOUND: O=S1(=O)C=C(Sc2nnc(-c3cccnc3)o2)c2ccccc21
DISCRETE LABEL: 1

Confirm or reject: MIC of O=S1(=O)C=C(Sc2nnc(-c3ccc(Cl)cc3)o2)c2ccccc21 lies strictly below 9 µM
-1

Confirm or reject: MIC of COc1ccc(-c2nnc(SC3=CS(=O)(=O)c4ccccc43)o2)cc1 lies strictly below 9 µM
-1

Confirm or reject: MIC of Nc1ccc(-c2nnc(SC3=CS(=O)(=O)c4ccccc43)o2)cc1 lies strictly below 9 µM
-1

====

Reported pIC50 is given for each of the following compounds.
SYSTEM UNDER TEST: Inosine-5'-monophosphate dehydrogenase (Cryptococcus neoformans var. neoformans serotype D (strain JEC21 /ATCC MYA-565) (Filobasidiella neoformans))
Sequence (Q5KP44 whole entry): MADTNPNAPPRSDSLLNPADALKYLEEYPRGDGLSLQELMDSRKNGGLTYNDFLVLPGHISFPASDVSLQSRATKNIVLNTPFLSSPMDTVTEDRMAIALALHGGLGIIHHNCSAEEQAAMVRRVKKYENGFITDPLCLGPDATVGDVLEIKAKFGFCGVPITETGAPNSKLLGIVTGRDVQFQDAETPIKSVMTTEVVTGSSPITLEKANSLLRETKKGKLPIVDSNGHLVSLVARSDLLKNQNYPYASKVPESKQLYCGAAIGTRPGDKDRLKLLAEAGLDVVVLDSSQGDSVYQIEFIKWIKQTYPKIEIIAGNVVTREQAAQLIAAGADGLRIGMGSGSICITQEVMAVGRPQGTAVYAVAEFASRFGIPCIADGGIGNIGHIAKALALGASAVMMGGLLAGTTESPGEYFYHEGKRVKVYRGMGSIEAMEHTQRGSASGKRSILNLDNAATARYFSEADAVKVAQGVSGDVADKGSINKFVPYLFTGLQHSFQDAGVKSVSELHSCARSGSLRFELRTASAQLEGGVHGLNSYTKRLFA
ASSAY COMMENT: Inhibition of recombinant Cryptococcus neoformans His-tagged IMPDH expressed in Escherichia coli BL21 (DE3) using IMP as substrate in presence of NAD
Quick note: pIC50 values are minus log10 of concentrations in mol/L.

Illustrative cases are given below, each with its answer.
COMPOUND: O=S1(=O)C=C(Sc2nnc(-c3ccc(Cl)cc3)o2)c2ccccc21
PROPERTY MEASURED: pIC50
READOUT VALUE: 6.31

COMPOUND: O=S1(=O)C=C(Sc2nnc(-c3cccc(Cl)c3)o2)c2ccccc21
PROPERTY MEASURED: pIC50
READOUT VALUE: 6.40

COMPOUND: COc1c(C)c2c(c(O)c1C/C=C(\C)CCC(=O)O)C(=O)OC2 [MYCOPHENOLIC ACID]
PROPERTY MEASURED: pIC50
READOUT VALUE: 6.92

COMPOUND: O=S1(=O)C=C(Sc2nnc(-c3ccccn3)o2)c2ccccc21
PROPERTY MEASURED: pIC50
READOUT VALUE: 5.97

COMPOUND: Nc1ccc(-c2nnc(SC3=CS(=O)(=O)c4ccccc43)o2)cc1
PROPERTY MEASURED: pIC50
READOUT VALUE: 6.00

So what does the record say about pIC50 for O=S1(=O)C=C(Sc2nnc(-c3ccccc3Cl)o2)c2ccccc21 ?
6.64

So what does the record say about pIC50 for O=S1(=O)C=C(Sc2nnc(-c3cccnc3)o2)c2ccccc21 ?
6.23
